Where do the numbers come from? From patent US20130224224A1.

# target_desc: T1, cynomolgus CX3CR1 (cynomolgus, UniProt P49238 1-355 (human entry))
# T1 construct: transiently expressed on HEK293T cells; also called cyCX3CR1; cyno CX3CR1
# T1 chain: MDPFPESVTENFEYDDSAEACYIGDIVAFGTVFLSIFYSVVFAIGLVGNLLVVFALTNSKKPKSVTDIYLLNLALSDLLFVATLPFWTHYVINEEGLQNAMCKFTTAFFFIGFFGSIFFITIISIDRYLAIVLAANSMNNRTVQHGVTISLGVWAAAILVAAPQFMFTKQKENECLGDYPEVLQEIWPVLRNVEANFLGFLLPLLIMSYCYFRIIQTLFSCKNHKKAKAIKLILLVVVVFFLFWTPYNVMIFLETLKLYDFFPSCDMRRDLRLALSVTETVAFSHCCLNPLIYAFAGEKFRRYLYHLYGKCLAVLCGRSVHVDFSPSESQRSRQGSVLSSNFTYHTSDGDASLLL
# assay_name: A647-fractalkine competition FACS, HEK293T cynomolgus CX3CR1
recorded_metric: log10(IC50) (log10 of the value in nM)
Use the decimal logarithm of IC50 (nM).

# annotated cases, reported log10(IC50) shown
binder	log10(IC50)
CX3CR1BIIPMP54H1 (VHH, also called 54H01; not shown: C-terminal c-myc and His6 tags) VHH: EVQLVESGGGSVQAGESLRLSCAASGTIFSSNAMAWYRQAPGKQRDLVAGINSVDITKYADSVKGRFTVSRDNAKNTVYLQMNSLKPEDTAVYYCTSDPRRGWNTRYWGQGTQVTVSS	1.83
CX3CR1BIIPMP61B2 (VHH, also called 61B02; not shown: C-terminal c-myc and His6 tags) VHH: EVQLVESRGGSVQAGASLRLSCAASGSIFSSNAMAWYRQAPGKQRDLVAVINTVGITKYADSVKGRFTISRDNAKNTVYLQMNSLKPEDTAVYYCTSDARRGWDTRYWGQGTQVTVSS	1.65
CX3CR1BIIPMP61E2 (VHH, also called 61E02; not shown: C-terminal c-myc and His6 tags) VHH: EVQLVESGGGSVQAGESLRLSCAASGSIFSSNAMAWYRQAPGKQRDLVAGINSVGITKYADSVKGRFTISRDNAKNTVYLQMNSLKPEDMAVYYCTSDPRRGWDTRYWGQGTQVTVSS	1.66
CX3CR1BIIPMP66B02 (VHH, alexa647 label where used as labeled competitor (Table 23), also called CX3CR1BII66B02; C100CX3CR1BII66B02; not shown: C-terminal c-myc and His6 tags) VHH: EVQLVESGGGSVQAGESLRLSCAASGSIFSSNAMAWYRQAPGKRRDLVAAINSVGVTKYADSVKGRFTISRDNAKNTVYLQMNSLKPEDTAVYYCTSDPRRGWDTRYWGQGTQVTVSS	1.28
CX3CR1BIIPMP54A7 (VHH, also called 54A07; not shown: C-terminal c-myc and His6 tags) VHH: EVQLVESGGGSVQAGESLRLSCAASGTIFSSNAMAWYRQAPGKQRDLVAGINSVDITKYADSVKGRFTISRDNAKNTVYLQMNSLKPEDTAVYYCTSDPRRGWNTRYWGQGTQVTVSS	2.45
CX3CR1BIIPMP61G3 (VHH, also called 61G03; not shown: C-terminal c-myc and His6 tags) VHH: KVQLVESGGGSMQAGESLRLSCAASGSIFSSNAMAWYRQAPGKQRDLVAAINSVGITKYADSVKGRFTISRDNAKNTVYLQMMSLKPEDTAVYYCTSDPRRGWDTRYWGQGTQVTVSS	2.48

May I ask what log10(IC50) has been recorded for CX3CR1BIIPMP54A12 (VHH, also called CX3CR1BII54A12; not shown: C-terminal c-myc and His6 tags) VHH: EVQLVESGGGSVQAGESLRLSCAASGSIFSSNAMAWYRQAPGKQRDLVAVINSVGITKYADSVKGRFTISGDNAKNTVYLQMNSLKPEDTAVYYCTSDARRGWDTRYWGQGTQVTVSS ? 1.83

Param item = CX3CR1BIIPMP54B3 (VHH, also called 54B03; not shown: C-terminal c-myc and His6 tags) VHH: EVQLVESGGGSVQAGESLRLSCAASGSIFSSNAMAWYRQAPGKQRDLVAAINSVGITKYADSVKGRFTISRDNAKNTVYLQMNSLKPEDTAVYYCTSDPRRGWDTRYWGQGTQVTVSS ; retrieve measured log10(IC50). 2.67
